Molecular target: T1, MARV Angola GPe (Marburg virus, Angola strain, UniProt Q1PD50 19-637)
T1 sequence: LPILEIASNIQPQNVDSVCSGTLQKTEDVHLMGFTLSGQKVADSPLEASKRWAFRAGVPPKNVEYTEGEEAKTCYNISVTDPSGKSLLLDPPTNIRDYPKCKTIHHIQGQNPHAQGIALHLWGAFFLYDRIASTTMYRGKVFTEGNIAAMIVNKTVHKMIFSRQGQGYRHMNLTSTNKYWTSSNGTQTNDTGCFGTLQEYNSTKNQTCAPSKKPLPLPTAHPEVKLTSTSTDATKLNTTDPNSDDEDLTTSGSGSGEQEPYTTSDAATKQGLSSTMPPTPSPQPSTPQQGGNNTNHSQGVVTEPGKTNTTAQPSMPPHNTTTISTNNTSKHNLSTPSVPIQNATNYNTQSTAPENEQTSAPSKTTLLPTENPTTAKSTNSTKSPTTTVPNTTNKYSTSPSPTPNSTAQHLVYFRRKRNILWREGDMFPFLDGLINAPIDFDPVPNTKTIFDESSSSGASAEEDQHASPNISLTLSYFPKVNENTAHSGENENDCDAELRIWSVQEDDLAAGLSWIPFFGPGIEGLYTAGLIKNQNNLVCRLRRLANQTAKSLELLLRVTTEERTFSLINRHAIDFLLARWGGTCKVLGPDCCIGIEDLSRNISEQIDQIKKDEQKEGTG
Experiment: ELISA on coated antigen (FIG. 2)

{"binder": "CAN30G4 (antibody, V domains shown) VH: EVKLVESGGGLVKSGGSLKLSCAVSGFTFSTYAMSWVRQIPEKRLEWVATISNGGSYIYYSDSVKGRFTISRDNAKNTLYLQMSSLRSEDTAMYYCARHRESYRYDWFAYWGQGTLVTVSA VL: DVLMTQTPLSLPVSLGDQASISCRSSQNIVHSDGNTYLEWYLQKPGQSPKLLIYKFSNRFSGVPDRFSGSGSGTDFTLKISRVEAEDLGVYYCFQGSHVPPTFGAGTKLELK", "binding result": "binds"}
{"binder": "CAN30G5 (antibody, V domains shown) VH: EVQLVESGGGLVQPKGSLKLSCAASGFAFNSYAMHWVCQAPGKGLEWVARIRIKSGNYATSYAGSVTDRFTVSRDDSQNLFYLQMNNLKTEDTAMYYCVREWEGAMDYWGQGTSVTVSS VL: DIVLTQSPLSLPVSLGDQASISCRSSQSLVHSNGNTYLHWYLQKPGQSPNLLIYKVSNRFSGVPDRFSGSGSGTDFTLKISRVEAEDLGVYFCSQSTHVPWTFGGGTKLEIK", "binding result": "no binding"}
{"binder": "CAN30G1 (antibody, V domains shown) VH: QIQLVQSGPELKKPGETVKISCKASGYTFTNYGMNWVKQAPGKGLKWMGWINTYTGKPTYVDDFKGRFAFSLETSANTAYLQINNLKNEDTATYFCESGGYDEDYWGQGTTLTVSS VL: ENVLTQSPAIMSASPGEKVTMTCSASSSVTYMHWYQQKSSTSPKLWIYDTSKLASGVPGRFSGSGSGNSYSLTISSMEAEDVATYYCFQGSGYPYTFGGGTKLEIK", "binding result": "binds"}
{"binder": "CAN30G3 (antibody, V domains shown) VH: QVQLKESGPGLVAPSQSLSITCTVSGFSLTDYGITWIRQPPGKGLEWLGVIWGGGSAYYNLVLKSRLSISKDNSKSQVFLKMNSLQTDDTAMYYCAKHRTLITTAMDYWGQGISVTVSS VL: DVLMTQTPLSLPVSLGDQASISCRSSQNIVHSNGNTYLEWYLQKSGQSPKLLIYKVSNRFSGVPDRFSGSGSGTDFTLKISRVEAEDLGVYYCFQGSHFPWTFGGGTKLEIK", "binding result": "no binding"}
